- Target Or System: furin, P09958;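 note: purified furin at 1:10 enzyme:substrate in 50 mM HEPES pH 7.5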
- Sequence (P09958 whole entry): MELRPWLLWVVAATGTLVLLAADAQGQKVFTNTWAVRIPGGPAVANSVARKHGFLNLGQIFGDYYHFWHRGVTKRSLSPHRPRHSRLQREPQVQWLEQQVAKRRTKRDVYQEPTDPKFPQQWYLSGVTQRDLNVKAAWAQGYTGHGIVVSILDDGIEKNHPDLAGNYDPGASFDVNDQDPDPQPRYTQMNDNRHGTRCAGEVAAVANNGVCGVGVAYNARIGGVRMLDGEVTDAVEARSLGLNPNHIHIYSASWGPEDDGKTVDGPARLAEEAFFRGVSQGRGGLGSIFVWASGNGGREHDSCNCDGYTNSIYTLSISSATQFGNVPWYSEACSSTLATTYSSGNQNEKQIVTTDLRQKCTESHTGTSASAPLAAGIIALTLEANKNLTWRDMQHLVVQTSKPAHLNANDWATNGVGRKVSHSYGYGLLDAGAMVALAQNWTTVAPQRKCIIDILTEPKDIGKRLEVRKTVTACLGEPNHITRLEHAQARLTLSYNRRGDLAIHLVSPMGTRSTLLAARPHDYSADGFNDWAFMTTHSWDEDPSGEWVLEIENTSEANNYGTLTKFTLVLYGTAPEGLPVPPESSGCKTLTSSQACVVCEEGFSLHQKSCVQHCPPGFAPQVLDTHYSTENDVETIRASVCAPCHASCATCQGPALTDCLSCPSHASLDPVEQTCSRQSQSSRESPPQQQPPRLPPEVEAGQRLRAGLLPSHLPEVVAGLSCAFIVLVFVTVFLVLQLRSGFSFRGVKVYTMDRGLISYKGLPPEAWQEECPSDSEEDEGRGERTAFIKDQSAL
- Experiment Notes: furin cleavage Z-score vs untreated control; higher = more cleavage, active = 3.5 or more, inactive = 1 or less, 8 variable residues between constant flanks
- Condition Description: 7.5 min
Some of the results follow. The hit rate among all sequences tested is not known here.
Select the correct class. Options are YES = active, NO = inactive and nothing else.

Outcome? CAGKLPATQLAGNASASA [HC286]
NO

Can you look up the reported call for CARRARHPGQAGNASASA [FS-2448] for me?
NO

Assay outcome for CADAMEECSQAGNASASA [HC1803] : what was it?
NO

For this sequence, state the assay outcome: CAYTTGPCTPAGNASASA [HC1193]
NO

Tell me the recorded outcome of this test for CAFAQALPVWAGNASASA [HC1301] .
NO

Entry CATHPCSGSWAGNASASA [HC1855] : call = ?
NO
